Tested on: Caco-2
assay-comment: cell viability relative to DMSO; higher = less toxic
condition-description: 72 h; 1000 nM
measurement-kind: cell viability (%)
Give bare numbers, in %.

Please review the following examples before continuing.
INSERT INTO results (molecule, uom, experimental_value) VALUES
  ('Cn1cnc2c1c(=O)[nH]c(=O)n2C [theobromine]', '%', 121),
  ('O=[N+]([O-])c1cn2c(n1)OC[C@@H](OCc1ccc(OC(F)(F)F)cc1)C2 [pretomanid]', '%', 99.3),
  ('COc1cc(C[C@H](C)[C@H](C)Cc2ccc3c(c2)OCO3)ccc1O [macelignan]', '%', 96.6),
  ('Cc1cc(Nc2ncnc3ccc(NC4=NC(C)(C)CO4)cc23)ccc1Oc1ccn2ncnc2c1 [tucatinib]', '%', 92.5),
  ('CC(C)N(C[C@H]1O[C@@H](n2cnc3c(N)ncnc32)[C@H](O)[C@@H]1O)[C@H]1C[C@@H](CCc2nc3cc(C(C)(C)C)ccc3[nH]2)C1 [EPZ-5676]', '%', 97.1);

State recorded cell viability for all listed molecules.
1. N#CCC(=O)NN [cyacetacide]
2. Cn1cc(-c2ccc3nnc(Sc4ccc5ncccc5c4)n3n2)cn1 [SGX523]
3. CCC[C@H](N[C@@H](C)C(=O)N1[C@H](C(=O)O)C[C@@H]2CCCC[C@@H]21)C(=O)OCC [perindopril]
4. COc1cc2c(cc1OC)-c1c/c(=N\c3c(C)cc(C)cc3C)n(C)c(=O)n1CC2 [trequinsin]
5. CC(=O)N(CC(O)CO)c1c(I)c(C(=O)NCC(O)CO)c(I)c(C(=O)NCC(O)CO)c1I (stereo not drawn) [iohexol]
6. CC(=O)N[C@@H](CSSC[C@H](NC(C)=O)C(=O)O)C(=O)O [D-7193]
7. COC(=O)[C@H](Cc1ccccc1)NC(=O)[C@@H](N)CC(=O)O [aspartame]

[95.6, 107, 101, 97, 106, 92, 99.6]

State recorded cell viability for all listed molecules.
1. COc1ccc(-c2csc(NC(=O)[C@H]3CCCCN3S(=O)(=O)c3ccc(C)cc3)n2)cc1 [ML277]
2. O=C/C=C/c1ccccc1 [cinnamaldehyde]
3. Cc1ccccc1C(C(=O)NC1CCCCC1)N(C(=O)Cn1ccnc1C)c1cccc(F)c1 (stereo not drawn) [AGI-5198]
4. C[C@]12C=CC(=O)C=C1CC[C@@H]1[C@@H]2CC[C@]2(C)OC(=O)CC[C@@H]12 [Testolactone]

[90.6, 97.6, 103, 91.1]

State recorded cell viability for all listed molecules.
1. Cc1c(-c2cnccn2)ssc1=S [oltipraz]
2. O=C(NCCN1CCCCC1)c1ccc(I)cc1 [N-[2-(piperidinylamino)ethyl]-4-iodobenzamide]

1. 106
2. 92.1
